tested on: 996289-038-R-J1-PDC spheroid viability; experiment: Anticancer human tumor 996289-038-R-J1-PDC patient-derived colon adenocarcinoma cell line growth inhibition [PI3K]; settings: second compound 0.316 µM; first compound 3.16 µM; active compounds read low; spheroids with HUVEC and MSC
Measured Metric: viability, T/C (%)
Enter your answer as a number in %; do not include the unit.

# count of solved cases: 2
INSERT INTO assay_data (compound, result_value) VALUES
  ('C=CC(=O)N1CCN(c2nc(=O)n(-c3c(C)ccnc3C(C)C)c3nc(-c4c(O)cccc4F)c(F)cc23)C(C)C1 (configuration not stated) + Cc1nc(NC(=O)N2CCCC2C(N)=O)sc1-c1ccnc(C(C)(C)C(F)(F)F)c1', 97.5),
  ('CC(C)NCC(C(=O)N1CCN(c2ncnc3c2C(C)CC3O)CC1)c1ccc(Cl)cc1 (configuration not stated) + CC(Nc1ncnc2nc[nH]c12)c1cc2cccc(Cl)c2c(=O)n1-c1ccccc1', 92.2);

Q. Give its viability, T/C value. Item: CC(Cn1ccc(-c2ccc(C#N)c(Cl)c2)n1)NC(=O)c1cc(C(C)O)[nH]n1 (configuration not stated) + Cc1nc(NC(=O)N2CCCC2C(N)=O)sc1-c1ccnc(C(C)(C)C(F)(F)F)c1
A. 78.3

Q. Which measured viability, T/C value corresponds to CC1(C)CCC(CN2CCN(c3ccc(C(=O)NS(=O)(=O)c4ccc(NCC5CCOCC5)c([N+](=O)[O-])c4)c(Oc4cnc5[nH]ccc5c4)c3)CC2)=C(c2ccc(Cl)cc2)C1 + COc1c(OCCCN2CCOCC2)ccc2c3n(c(=NC(=O)c4cnc(N)nc4)nc12)CCN3 ?
A. 38.6

Q. // viability, T/C lookup, key: CNC(=O)c1ccc(N2C(=S)N(c3ccc(C#N)c(C(F)(F)F)c3)C(=O)C2(C)C)cc1F + CC(Nc1ccc2c(c1)OCCn1cc(N3C(=O)OCC3C(F)F)nc1-2)C(N)=O
A. 70.3

Q. Entry Cn1ncc(Cl)c1-c1cc(C(=O)NC(CN)Cc2cccc(F)c2)sc1Cl (configuration not stated) + COc1c(OCCCN2CCOCC2)ccc2c3n(c(=NC(=O)c4cnc(N)nc4)nc12)CCN3 has what viability, T/C?
A. 30.5

Q. I would be grateful if you could share the reported viability, T/C for CC1(C)CCC(CN2CCN(c3ccc(C(=O)NS(=O)(=O)c4ccc(NCC5CCOCC5)c([N+](=O)[O-])c4)c(Oc4cnc5[nH]ccc5c4)c3)CC2)=C(c2ccc(Cl)cc2)C1 + CC(Nc1ncnc2nc[nH]c12)c1cc2cccc(Cl)c2c(=O)n1-c1ccccc1 .
A. 112

* * *

Test system: 996289-038-R-J1-PDC spheroid viability
Experiment: Anticancer human tumor 996289-038-R-J1-PDC cell line growth inhibition [PI3K];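 further: luminescence used as a proxy for viable cell amount; spheroids exposed to compounds for seven days before viability read; percent viability relative to DMSO vehicle control as 100%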
Details: second compound 0.00316 µM; first compound 0.0316 µM; active compounds read low; spheroids with HUVEC and MSC
Description: Combinatorial screen of targeted agents with the PI3K inhibitors inavolisib, alpelisib, duvelisib, and copanlisib in multi-cell type tumor spheroids A high-throughput screen of multi-cell type tumor spheroids was designed to identify active combinations of targeted small molecules and PI3K pathway inhibitors. […] Compounds. […] If the clinical Cmax for an agent had not been determined, the highest concentration tested was 10 microM. […]
Listed next: entries and their corresponding viability, T/C.
Express the result in % but write the number alone.

Known viability, T/C results, listed for orientation:
INSERT INTO measurements (molecule, result_value) VALUES
  ('C=CC(=O)N1CCN(c2nc(=O)n(-c3c(C)ccnc3C(C)C)c3nc(-c4c(O)cccc4F)c(F)cc23)C(C)C1 (stereo unspecified) + CC(Nc1ccc2c(c1)OCCn1cc(N3C(=O)OCC3C(F)F)nc1-2)C(N)=O', 91.2),
  ('CNC(=O)c1ccc(N2C(=S)N(c3ccc(C#N)c(C(F)(F)F)c3)C(=O)C2(C)C)cc1F + CC(Nc1ccc2c(c1)OCCn1cc(N3C(=O)OCC3C(F)F)nc1-2)C(N)=O', 82.9),
  ('CC1(C)CCC(Nc2ncc(C(F)(F)F)c(-c3c[nH]c4c(P(C)(C)=O)c(C#N)ccc34)n2)CN1 (stereo unspecified) + CC(Nc1ccc2c(c1)OCCn1cc(N3C(=O)OCC3C(F)F)nc1-2)C(N)=O', 111),
  ('CCCS(=O)(=O)Nc1ccc(F)c(C(=O)c2c[nH]c3ncc(-c4ccc(Cl)cc4)cc23)c1F + COc1c(OCCCN2CCOCC2)ccc2c3n(c(=NC(=O)c4cnc(N)nc4)nc12)CCN3', 98.9),
  ('Cn1nccc1Nc1nccc(-c2ccn(C(CO)c3ccc(Cl)c(F)c3)c(=O)c2)n1 (stereo unspecified) + CC(Nc1ccc2c(c1)OCCn1cc(N3C(=O)OCC3C(F)F)nc1-2)C(N)=O', 104);

Q. Look up viability, T/C for this molecule: CC1(C)CCC(CN2CCN(c3ccc(C(=O)NS(=O)(=O)c4ccc(NCC5CCOCC5)c([N+](=O)[O-])c4)c(Oc4cnc5[nH]ccc5c4)c3)CC2)=C(c2ccc(Cl)cc2)C1 + CC(Nc1ccc2c(c1)OCCn1cc(N3C(=O)OCC3C(F)F)nc1-2)C(N)=O
A. 83.7

Q. Please give the measured viability, T/C for this molecule: C#Cc1c(F)ccc2cc(O)cc(-c3ncc4c(N5CC6CCC(C5)N6)nc(OCC56CCCN5CC(F)C6)nc4c3F)c12 (stereo unspecified) + CC(Nc1ccc2c(c1)OCCn1cc(N3C(=O)OCC3C(F)F)nc1-2)C(N)=O
A. 86

Q. Looking for the measured viability, T/C of Cn1ncnc1[C@H]1c2n[nH]c(=O)c3cc(F)cc(c23)N[C@@H]1c1ccc(F)cc1 + COc1c(OCCCN2CCOCC2)ccc2c3n(c(=NC(=O)c4cnc(N)nc4)nc12)CCN3 , can you help?
A. 103

Q. Bench note: what viability, T/C did CC(C)NCC(C(=O)N1CCN(c2ncnc3c2C(C)CC3O)CC1)c1ccc(Cl)cc1 (stereo unspecified) + COc1c(OCCCN2CCOCC2)ccc2c3n(c(=NC(=O)c4cnc(N)nc4)nc12)CCN3 show?
A. 98.9

Q. Reported viability, T/C, molecule CC(=O)c1c(C)c2cnc(Nc3ccc(N4CCNCC4)cn3)nc2n(C2CCCC2)c1=O + CC(Nc1ccc2c(c1)OCCn1cc(N3C(=O)OCC3C(F)F)nc1-2)C(N)=O : ____
A. 96.5

Q. # lookup: viability, T/C of CCN1CCN(Cc2ccc(Nc3ncc(F)c(-c4cc(F)c5nc(C)n(C(C)C)c5c4)n3)nc2)CC1 + COc1c(OCCCN2CCOCC2)ccc2c3n(c(=NC(=O)c4cnc(N)nc4)nc12)CCN3
A. 92.6

Q. Which viability, T/C reading was recorded for the molecule C[C@@H](NC(=O)c1ncnc(N)c1Cl)c1ncc(C(=O)Nc2cc(C(F)(F)F)c(Cl)cn2)s1 + COc1c(OCCCN2CCOCC2)ccc2c3n(c(=NC(=O)c4cnc(N)nc4)nc12)CCN3 ?
A. 89.7

Q. What does the record list as viability, T/C for CC(C)NCC(C(=O)N1CCN(c2ncnc3c2C(C)CC3O)CC1)c1ccc(Cl)cc1 (stereo unspecified) + CC(Nc1ccc2c(c1)OCCn1cc(N3C(=O)OCC3C(F)F)nc1-2)C(N)=O ?
A. 86

Cited source for all entries: PubChem BioAssay AID1963965
